# SYSTEM NAME: T1, Human MuSK (R&D Systems, cat. 10189-MK, histidine tag) (human, UniProt O15146 24-495)
# T1 construct: Bought protein; also called human monomeric MuSK-6xhis; not shown: histidine tag (6xhis)
# T1 sequence: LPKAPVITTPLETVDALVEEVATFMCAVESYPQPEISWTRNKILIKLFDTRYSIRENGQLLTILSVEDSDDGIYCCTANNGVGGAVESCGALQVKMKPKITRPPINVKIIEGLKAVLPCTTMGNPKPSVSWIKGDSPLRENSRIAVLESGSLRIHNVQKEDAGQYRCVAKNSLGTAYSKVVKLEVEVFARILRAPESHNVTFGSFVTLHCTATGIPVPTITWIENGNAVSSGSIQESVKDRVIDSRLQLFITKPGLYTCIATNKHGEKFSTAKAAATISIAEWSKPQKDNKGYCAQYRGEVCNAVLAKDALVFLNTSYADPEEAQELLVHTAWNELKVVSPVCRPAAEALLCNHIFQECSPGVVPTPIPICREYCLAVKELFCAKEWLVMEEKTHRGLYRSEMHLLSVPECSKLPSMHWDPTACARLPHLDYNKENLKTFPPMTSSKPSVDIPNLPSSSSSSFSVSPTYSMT
# METHOD: SPR (Biacore), MuSK-coated chip, antibody alone (run of first antibody 3D10a)
PROPERTY LABEL: amplitude of prelead without presaturating MuSK (RU)

- BINDER: "3D10a (antibody, human IgG1, kappa, L234A L235A, V domains shown) VH: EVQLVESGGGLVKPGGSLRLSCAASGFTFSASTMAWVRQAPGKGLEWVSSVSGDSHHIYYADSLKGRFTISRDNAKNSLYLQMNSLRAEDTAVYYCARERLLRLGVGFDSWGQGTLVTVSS VL: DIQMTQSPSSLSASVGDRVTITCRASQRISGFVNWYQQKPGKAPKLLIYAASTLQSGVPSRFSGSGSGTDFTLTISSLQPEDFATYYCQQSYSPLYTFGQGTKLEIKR"
  VALUE UNIT: "RU"
  NUMERIC RESULT: 3130
